Test: Blocking experiments: inhibition of radiotracer accumulation in the rat by coadministered compound
Assay type: in vivo, rat (male Wistar)
Conditions: rat, brain, iv, rat, iv, 60 min, + cold (dl)3-HIPP HCl 0.53 mg/kg; read-out: radioactivity in brain
READOUT: tissue uptake at 1 h (%ID/g)
Give your result in %ID/g as a bare value.

Using the record for OC(Cc1cccc([125I])c1)CN1CCC(c2ccccc2)CC1 (single isomer, unassigned; (+)) [(+)-[^125 l]12] , state its measured tissue uptake at 1 h.
0.24

###

Test: Tissue distribution (biodistribution) of radioiodinated compound in the rat
Settings: rat, heart, iv, radioactivity in heart, 5 min
READOUT: tissue uptake at 5 min (%ID/g)
# number only, unit %ID/g dropped from output

Look up tissue uptake at 5 min of OC(CN1CCC(c2ccccc2)CC1)c1ccc([125I])cc1 (single isomer, unassigned; (+)) [(+)-[^125 l]13] and report it.
1.34

Give tissue uptake at 5 min for OC(Cc1ccc([125I])cc1)CN1CCC(c2ccccc2)CC1 (single isomer, unassigned; (+)) [(+)-4-[^125 l]HIPP]
1.8

Alright, here's another compound for you.
Tell me its tissue uptake at 5 min given OC(Cc1cccc([125I])c1)CN1CCC(c2ccccc2)CC1 (single isomer, unassigned; (+)) [(+)-[^125 l]12] as the entry.
1.3

###

Experiment: Tissue distribution (biodistribution) of radioiodinated compound in the rat
Conditions: rat, lung, iv, radioactivity in lung, 60 min
# tissue uptake at 1 h values compiled below
Lab book: enter the figure in %ID/g, no units written.

Could you please provide reported tissue uptake at 1 h for OC(Cc1ccc([125I])cc1)CN1CCC(c2ccccc2)CC1 (single isomer, unassigned; (+)) [(+)-4-[^125 l]HIPP] ? Thanks!
4.75

Read the next record carefully.
# return recorded tissue uptake at 1 h for input OC(Cc1cccc([125I])c1)CN1CCC(c2ccccc2)CC1 (single isomer, unassigned; (+)) [(+)-[^125 l]12]
1.42

###

Experiment: Tissue distribution (biodistribution) of radioiodinated compound in the rat
Details: rat, iv, 60 min
Is Brain: Blood Ratio at least 40? Then 1. If not, -1.

Use these answered entries as a reference point.
Quick check, Brain: Blood Ratio >= 40? OC(CN1CCC(c2ccccc2)CC1)c1ccc([125I])cc1 (single isomer, unassigned; (+)) [(+)-[^125 l]13]
1

Has OC(Cc1ccc([125I])cc1)CN1CCC(c2ccccc2)CC1 (single isomer, unassigned; (+)) [(+)-4-[^125 l]HIPP] a recorded Brain: Blood Ratio greater than or equal to 40?
1

Is Brain: Blood Ratio for OC(Cc1ccc([125I])cc1)CN1CCC(c2ccccc2)CC1 (single isomer, unassigned; (-)) [(-)-4-[^125 l]HIPP] at or above 40?
1

Continuing:
Form field: Brain: Blood Ratio at least 40? Entry: OC(CN1CCC(c2ccccc2)CC1)c1ccc([125I])cc1 (single isomer, unassigned; (-)) [(-)-[^125 l]13]
-1

Say whether OC(Cc1cccc([125I])c1)CN1CCC(c2ccccc2)CC1 (single isomer, unassigned; (+)) [(+)-[^125 l]12] shows Brain: Blood Ratio of 40 or more.
-1

In plain terms: is recorded Brain: Blood Ratio at least 40 for OC(Cc1cccc([125I])c1)CN1CCC(c2ccccc2)CC1 (single isomer, unassigned; (-)) [(-)-[^125 l]12] ?
-1

Cited source: patent US5358712A
